SUBJECT_OF_TEST: FAAH Human recombinant (Homo sapiens)
Construct: purchased Cayman Chemical
Sequence (O00519 1-579): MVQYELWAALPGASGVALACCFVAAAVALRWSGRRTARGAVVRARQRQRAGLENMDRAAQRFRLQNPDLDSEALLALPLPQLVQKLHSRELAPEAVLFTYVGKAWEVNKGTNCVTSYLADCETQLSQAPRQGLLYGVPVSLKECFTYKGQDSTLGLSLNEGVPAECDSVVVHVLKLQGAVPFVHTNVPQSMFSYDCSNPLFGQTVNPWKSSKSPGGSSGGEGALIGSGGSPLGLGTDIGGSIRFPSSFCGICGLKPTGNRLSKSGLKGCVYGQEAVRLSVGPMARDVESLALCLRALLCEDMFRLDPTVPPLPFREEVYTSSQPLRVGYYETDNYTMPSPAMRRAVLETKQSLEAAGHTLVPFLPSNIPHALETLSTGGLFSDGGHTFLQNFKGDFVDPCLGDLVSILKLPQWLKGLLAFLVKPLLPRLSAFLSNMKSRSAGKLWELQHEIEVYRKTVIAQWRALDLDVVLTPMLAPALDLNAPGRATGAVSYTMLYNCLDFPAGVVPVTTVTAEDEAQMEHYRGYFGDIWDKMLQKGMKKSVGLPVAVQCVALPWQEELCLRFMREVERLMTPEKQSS
EXPERIMENT_SUMMARY: FAAH inhibition assay (fluorometric, AMC-AA substrate)
Type: biochemical
EXPERIMENTAL_SETUP: human recombinant enzyme, AMC-AA 5 µM substrate; mean ± SEM
pIC50: −log10 of the molar value.
Mark Met for reported pIC50 of 5 or greater; mark Not met for anything smaller.

Solved cases below.
1. CCC(C)(Oc1ccc(-c2ccccc2)cc1)C(=O)O (stereo not drawn) : Met
2. C[C@](Oc1ccc(-c2ccccc2)cc1)(C(=O)O)c1ccccc1 [(R)-5] : Met
3. C[C@@](Oc1ccc(-c2ccccc2)cc1)(C(=O)O)c1ccccc1 [(S)-5] : Met
4. C[C@](Oc1ccc(Br)cc1)(C(=O)O)c1ccccc1 [(R)-11] : Met
5. O=C(Oc1ccc([N+](=O)[O-])cc1)N1CCN(Cc2cccc(Oc3ccccc3)c2)CC1 [JZL195, reference compound] : Met

Now take the following molecule into account.
Hi team, for CC(Cc1ccccc1)(Oc1ccc(-c2ccccc2)cc1)C(=O)O (stereo not drawn) , is the recorded pIC50 at or above 5?
Not met

----------
SUBJECT_OF_TEST: human PPARα (hPPARα) (Homo sapiens)
Construct: expressed in transfected cells; host or cells: HepG2 (human hepatoblastoma)
Sequence (Q07869 239-466 limits assumed): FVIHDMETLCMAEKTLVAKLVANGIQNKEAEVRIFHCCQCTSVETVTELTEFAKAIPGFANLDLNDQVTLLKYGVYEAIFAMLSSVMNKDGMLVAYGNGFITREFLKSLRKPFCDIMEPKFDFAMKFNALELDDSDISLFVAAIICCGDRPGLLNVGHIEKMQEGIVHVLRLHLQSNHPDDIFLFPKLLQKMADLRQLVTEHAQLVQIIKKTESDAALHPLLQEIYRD
EXPERIMENT_SUMMARY: GAL4-PPARα transactivation assay in transiently transfected HepG2 cells
Format: cell-based
Recorded EC50, one value per entry.
Numbers only; they are read as nM.

Completed entries (count: 4):
1. CC(Cc1ccccc1)(Sc1ccc(Cl)cc1)C(=O)O (centres unmarked) : 860
2. CC(Cc1ccccc1)(Oc1ccc(Cl)cc1)C(=O)O (centres unmarked) : 1570
3. C[C@@](Oc1ccc(Br)cc1)(C(=O)O)c1ccccc1 [(S)-11] : 233
4. CCC(C)(Oc1ccc(Br)cc1)C(=O)O (centres unmarked) : 7900

Value lookup for EC50; key = C[C@@](Oc1ccc(-c2ccccc2)cc1)(C(=O)O)c1ccccc1 [(S)-5]
126

Any idea what EC50 was measured for CC(Oc1ccc(Br)cc1)(C(=O)O)c1ccccc1 (racemic) ?
730

Consider the molecule shown here: CC(Oc1ccc(-c2ccccc2)cc1)(C(=O)O)c1ccccc1 (racemic) What is its recorded EC50?
460

----------
SUBJECT_OF_TEST: human PPARγ (hPPARγ) (Homo sapiens)
Construct: expressed in transfected cells; host or cells: HepG2 (human hepatoblastoma)
EXPERIMENT_SUMMARY: cell-based
Format: cell-based
EXPERIMENTAL_SETUP: percentage of the maximum fold induction with rosiglitazone (100%)
Catalogue of compounds with associated PPARγ Emax
Number in %, nothing else.

1. C[C@@](Oc1ccc(Br)cc1)(C(=O)O)c1ccccc1 [(S)-11] : 40
2. C[C@@](Oc1ccc(-c2ccccc2)cc1)(C(=O)O)c1ccccc1 [(S)-5] : 38.7
3. C[C@](Oc1ccc(Br)cc1)(C(=O)O)c1ccccc1 [(R)-11] : 15.1

Next item in the queue.
Form field: reported PPARγ Emax of C[C@](Oc1ccc(-c2ccccc2)cc1)(C(=O)O)c1ccccc1 [(R)-5]
14

----------
SUBJECT_OF_TEST: Aβ40 (Homo sapiens)
Construct: purchased EZBiolab
Sequence (P05067 672-711): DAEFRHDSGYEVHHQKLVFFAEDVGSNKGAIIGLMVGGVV
EXPERIMENT_SUMMARY: Inhibition of Aβ40 aggregation, thioflavin T (ThT) fluorescence-based method
Type: biochemical
EXPERIMENTAL_SETUP: pH 7.4, inhibitor 100 µM, Aβ40 30 µM, 2% HFIP, PBS pH 7.4; mean ± SEM; read-out: Aβ40 Aggr. i% @100 µM (percent of inhibition)
Please mark 1 if the recorded inhibition at 100 µM is equal to or greater than 20%, and 0 if it falls below.

// below: answered compounds
1. CCC(C)(Oc1ccc(-c2ccccc2)cc1)C(=O)O (stereo not drawn) [Compound 4] : 1
2. C[C@@](Oc1ccc(-c2ccccc2)cc1)(C(=O)O)c1ccccc1 [(S)-5] : 1

Continue with the next compound.
Does inhibition at 100 µM meet or surpass 20% for CCC(C)(Oc1ccc(Br)cc1)C(=O)O (stereo not drawn) [Compound 10, (4-Bromophenoxy)-2-methylbutanoic Acid] ?
1

----------
SUBJECT_OF_TEST: human PPARγ (hPPARγ) (Homo sapiens, UniProt P37231)
Sequence (P37231 238-503 limits assumed): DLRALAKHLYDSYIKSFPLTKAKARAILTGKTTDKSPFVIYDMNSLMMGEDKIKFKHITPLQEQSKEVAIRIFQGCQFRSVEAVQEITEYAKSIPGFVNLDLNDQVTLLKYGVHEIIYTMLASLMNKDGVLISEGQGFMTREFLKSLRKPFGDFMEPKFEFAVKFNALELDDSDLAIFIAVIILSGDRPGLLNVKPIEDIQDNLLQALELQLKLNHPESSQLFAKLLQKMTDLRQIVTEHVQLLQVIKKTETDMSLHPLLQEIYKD
EXPERIMENT_SUMMARY: cell-based
EXPERIMENTAL_SETUP: PPARγ EC50, GAL4-PPARγ transactivation, HepG2 cells
Text: For this purpose, GAL4-PPAR chimeric receptors were expressed in transiently transfected HepG2 cells according to a previously reported procedure. […] Maximum obtained fold induction with the reference agonist was defined as 100%. […]
Label yes (1) when EC50 < 10 µM; otherwise no (0).

Example results:
1) C[C@@](Oc1ccc(-c2ccccc2)cc1)(C(=O)O)c1ccccc1 [(S)-5] : yes (1)
2) C[C@](Oc1ccc(Br)cc1)(C(=O)O)c1ccccc1 [(R)-11] : no (0)
3) CC(Oc1ccc(Br)cc1)(C(=O)O)c1ccccc1 (racemic) : no (0)
4) CC(Oc1ccc(Cl)cc1)(C(=O)O)c1ccccc1 (stereo not shown) : no (0)

Hi there! Is EC50 for CC(Cc1ccccc1)(Oc1ccc(-c2ccccc2)cc1)C(=O)O (stereo not shown) below 10 µM, do you know?
yes (1)

Dear colleague, could you confirm whether EC50 of CC(C)(Oc1ccc(-c2ccccc2)cc1)C(=O)O falls below 10 µM? Thanks.
no (0)

Report whether reported EC50 is lower than 10 µM (strictly) for CC(Oc1ccc(-c2ccccc2)cc1)(C(=O)O)c1ccccc1 (racemic)
yes (1)

----------
SUBJECT_OF_TEST: human PPARα (hPPARα) (Homo sapiens)
Construct: expressed in transfected cells; host or cells: HepG2 (human hepatoblastoma)
EXPERIMENT_SUMMARY: GAL4-PPARα transactivation assay in transiently transfected HepG2 cells
Format: cell-based
EXPERIMENTAL_SETUP: HepG2
ENDPOINT_NAME: Emax
Report the figure along with its unit, number first.

Would you please look over these solved cases?
1. O=C(O)C(Cc1ccccc1)Oc1ccc(-c2ccccc2)cc1 (stereo not drawn) [Compound 1, reference compound] : 116%
2. CC(Oc1ccc(-c2ccccc2)cc1)(C(=O)O)c1ccccc1 (racemic) [Compound 5, (4-Phenylphenoxy)-2-phenylpropanoic acid] : 105%
3. CC(Cc1ccccc1)(Oc1ccc(Cl)cc1)C(=O)O (stereo not drawn) [Compound 8] : 92%
4. CC(Cc1ccccc1)(Oc1ccc(-c2ccccc2)cc1)C(=O)O (stereo not drawn) [Compound 6] : 129%
5. CCC(C)(Oc1ccc(Br)cc1)C(=O)O (stereo not drawn) [Compound 10, (4-Bromophenoxy)-2-methylbutanoic Acid] : 92%
6. C[C@@](Oc1ccc(-c2ccccc2)cc1)(C(=O)O)c1ccccc1 [(S)-5] : 86%

Please provide the recorded Emax for CC(Oc1ccc(Br)cc1)(C(=O)O)c1ccccc1 (racemic) [Compound 11, (4-Bromophenoxy)-2-phenylpropanoic acid] , tested on human PPARα (hPPARα) (Homo sapiens).
97%

Observed Emax on human PPARα (hPPARα) (Homo sapiens) for CCC(C)(Oc1ccc(-c2ccccc2)cc1)C(=O)O (stereo not drawn) [Compound 4] , please.
108%

Request: Emax, test system human PPARα (hPPARα) (Homo sapiens), entry CC(Cc1ccccc1)(Sc1ccc(Cl)cc1)C(=O)O (stereo not drawn) [Compound 9]
86%

Item: CC(C)(Oc1ccc(-c2ccccc2)cc1)C(=O)O [Compound 3, (4-Phenylphenoxy)-2-methylpropanoic Acid] Test system: human PPARα (hPPARα) (Homo sapiens) Read-out: Emax Value: ?
69%

Report Emax for CC(Oc1ccc(Cl)cc1)(C(=O)O)c1ccccc1 (stereo not drawn) [Compound 7] tested on human PPARα (hPPARα) (Homo sapiens).
63%

Give Emax (human PPARα (hPPARα) (Homo sapiens)) of the following compound: C[C@@](Oc1ccc(Br)cc1)(C(=O)O)c1ccccc1 [(S)-11]
77%
